MOLECULE: CCc1cc(C)cc(CC)c1C1C(=O)N2CCN(OC)CCN2C1=O [Compound P2.3]
melting point: 240 °C (dec.)
//
MOLECULE: CCOC(=O)Oc1c(-c2cc(C)c(C)cc2C)c(=O)n2n1CCN(OC)CC2 [Compound P1.21]
melting point: 117 to 118 °C
//
MOLECULE: CON1CCN2C(=O)C(c3c(C)cc(-c4ccc(F)cc4)cc3C)C(=O)N2CC1 [Compound P2.21]
melting point: 292 to 294 °C
//
MOLECULE: CON1CCN2C(=O)C(c3c(C)cc(-c4ccc(Cl)cc4)cc3C)C(=O)N2CC1 [Compound P2.20]
melting point: 258 to 260 °C
//
MOLECULE: CCOC(=O)Oc1c(-c2c(Cl)cc(C)cc2OC)c(=O)n2n1CCN(OC)CC2 [Compound P1.20]
melting point: 138 to 139 °C
//
MOLECULE: CON1CCN2C(=O)C(c3cc(C)c(C)cc3C)C(=O)N2CC1 [Compound P2.19]
melting point: 171 to 173 °C
//
MOLECULE: CON1CCN2C(=O)C(c3cc(-c4ccc(Cl)cc4)ccc3C)C(=O)N2CC1 [Compound P2.7]
melting point: 248 to 250 °C

----------
tested on: Winter wheat (TRZAW); test: Example B8: post application on wheat, with and without safener cloquintocet-mexyl; type: in vivo; details: 250 g/ha + 0.5 g/kg seeds cloquintocet-mexyl, after 13 days, 100 = total damage, 0 = no damage
This listing pairs molecules with measured TRZAW damage to plant.

MOLECULE: CCOC(=O)Oc1c(-c2c(C)cc(Br)cc2C)c(=O)n2n1CCN(OC)CC2 [Compound P1.10]
TRZAW damage to plant: 30
//
MOLECULE: CCOC(=O)Oc1c(-c2c(C)cc(C)cc2C)c(=O)n2n1CCN(OC)CC2 [Compound P1.2]
TRZAW damage to plant: 30
//
MOLECULE: CON1CCN2C(=O)C(c3c(C)cc(C)cc3C)C(=O)N2CC1 [Compound P2.1]
TRZAW damage to plant: 30
//
MOLECULE: CON1CCN2C(=O)C(c3c(C)cc(Cl)cc3C)C(=O)N2CC1 [Compound P2.2]
TRZAW damage to plant: 20
//
MOLECULE: CCOC(=O)Oc1c(-c2c(C)cc(C)cc2OC)c(=O)n2n1CCN(OC)CC2 [Compound P1.9]
TRZAW damage to plant: 60
//
MOLECULE: CCOC(=O)Oc1c(-c2c(C)cc(Cl)cc2C)c(=O)n2n1CCN(OC)CC2 [Compound P1.3]
TRZAW damage to plant: 20
//
MOLECULE: CCOC(=O)Oc1c(-c2c(Cl)cc(C)cc2Br)c(=O)n2n1CCN(OC)CC2 [Compound P1.11]
TRZAW damage to plant: 10
//
MOLECULE: CON1CCN2C(=O)C(c3c(Cl)cc(C)cc3Br)C(=O)N2CC1 [Compound P2.10]
TRZAW damage to plant: 20
//
MOLECULE: C#Cc1cc(C)c(-c2c(OC(=O)OCC)n3n(c2=O)CCN(OC)CC3)c(C)c1 [Compound P1.8]
TRZAW damage to plant: 20
//
MOLECULE: CCOC(=O)Oc1c(-c2c(C)cc(Cl)cc2Br)c(=O)n2n1CCN(OC)CC2 [Compound P1.12]
TRZAW damage to plant: 30
//
MOLECULE: CON1CCn2c(OC(=O)C(C)(C)C)c(-c3c(C)cc(C)cc3C)c(=O)n2CC1 [Compound P1.1]
TRZAW damage to plant: 50
//
MOLECULE: CON1CCN2C(=O)C(c3c(C)cc(Br)cc3C)C(=O)N2CC1 [Compound P2.9]
TRZAW damage to plant: 20
//
MOLECULE: C#Cc1cc(C)cc(C)c1C1C(=O)N2CCN(OC)CCN2C1=O [Compound P2.5]
TRZAW damage to plant: 10
//
MOLECULE: C#Cc1cc(C)c(C2C(=O)N3CCN(OC)CCN3C2=O)c(C)c1 [Compound P2.8]
TRZAW damage to plant: 10
//
MOLECULE: COc1cc(C)cc(C)c1C1C(=O)N2CCN(OC)CCN2C1=O [Compound P2.12]
TRZAW damage to plant: 30
//
MOLECULE: CON1CCN2C(=O)C(c3c(C)cc(Cl)cc3Br)C(=O)N2CC1 [Compound P2.11]
TRZAW damage to plant: 20
